tested on: MCF7; assay: Cell cycle arrest in human MCF7 cells assessed as accumulation in G2 phase at 5 times of antiproliferative IC50 incubated for 72 hrs by propidium iodide based flow cytometry (reference value: 18.6 %); assay type: functional
Rule for this label: label 1 means Activity is less than 60%; label 0 means Activity is at least 60%.

compound.structure: COc1c(Br)c2c(c(OC)c1OC)-c1ccc(OC)c(=O)cc1[C@@H](NC(C)=O)CC2
assigned.class: label 1
//
compound.structure: COc1c(Br)c2c(c(OC)c1OC)-c1ccc(SC)c(=O)cc1[C@@H](NC(=O)C(C)C)CC2
assigned.class: label 1
//
compound.structure: COc1c(Br)c2c(c(OC)c1OC)-c1ccc(SC)c(=O)cc1[C@@H](NC(C)=O)CC2
assigned.class: label 0
//
compound.structure: COCC(=O)N[C@H]1CCc2c(Br)c(OC)c(OC)c(OC)c2-c2ccc(SC)c(=O)cc21
assigned.class: label 0
//
compound.structure: COc1cc2c(c(OC)c1OC)-c1ccc(OC)c(=O)cc1[C@@H](NC(C)=O)CC2
assigned.class: label 0
//
compound.structure: CCC(=O)N[C@H]1CCc2c(Br)c(OC)c(OC)c(OC)c2-c2ccc(SC)c(=O)cc21
assigned.class: label 1
//
compound.structure: COc1cccc2c1C(=O)c1c(O)c3c(c(O)c1C2=O)C[C@@](O)(C(=O)CO)C[C@@H]3O[C@H]1C[C@H](N)[C@H](O)[C@H](C)O1
assigned.class: label 1

----------
tested on: MCF7; experiment: Cell cycle arrest in human MCF7 cells assessed as accumulation in subG1 phase at 5 times of antiproliferative IC50 incubated for 72 hrs by propidium iodide based flow cytometry (reference value: 3.59 %); type: functional
Measured Activity by item
measured.quantity: Activity (%)

compound: COc1cccc2c1C(=O)c1c(O)c3c(c(O)c1C2=O)C[C@@](O)(C(=O)CO)C[C@@H]3O[C@H]1C[C@H](N)[C@H](O)[C@H](C)O1 [DOXORUBICIN]
measured.on: MCF7
measured.quantity: Activity
quantity.unit: %
readout.number: 18.3

compound: COc1cc2c(c(OC)c1OC)-c1ccc(OC)c(=O)cc1[C@@H](NC(C)=O)CC2 [COLCHICINE]
measured.on: MCF7
measured.quantity: Activity
quantity.unit: %
readout.number: 12.6

compound: COc1c(Br)c2c(c(OC)c1OC)-c1ccc(SC)c(=O)cc1[C@@H](NC(=O)c1ccccc1)CC2
measured.on: MCF7
measured.quantity: Activity
quantity.unit: %
readout.number: 15.6

compound: CCC(=O)N[C@H]1CCc2c(Br)c(OC)c(OC)c(OC)c2-c2ccc(SC)c(=O)cc21
measured.on: MCF7
measured.quantity: Activity
quantity.unit: %
readout.number: 17.7

compound: COc1c(Br)c2c(c(OC)c1OC)-c1ccc(OC)c(=O)cc1[C@@H](NC(C)=O)CC2
measured.on: MCF7
measured.quantity: Activity
quantity.unit: %
readout.number: 16.4

compound: COc1c(Br)c2c(c(OC)c1OC)-c1ccc(SC)c(=O)cc1[C@@H](NC(C)=O)CC2
measured.on: MCF7
measured.quantity: Activity
quantity.unit: %
readout.number: 13.1

compound: COc1c(Br)c2c(c(OC)c1OC)-c1ccc(SC)c(=O)cc1[C@@H](NC(=O)C(C)C)CC2
measured.on: MCF7
measured.quantity: Activity
quantity.unit: %
readout.number: 17.5

compound: COCC(=O)N[C@H]1CCc2c(Br)c(OC)c(OC)c(OC)c2-c2ccc(SC)c(=O)cc21
measured.on: MCF7
measured.quantity: Activity
quantity.unit: %
readout.number: 15.1

----------
Measured Activity by item
system: MCF7; test: Cell cycle arrest in human MCF7 cells assessed as accumulation in subG1 phase at 5 times of antiproliferative IC50 incubated for 24 hrs by propidium iodide based flow cytometry (reference value: 7.79 %); type: functional

compound.structure: COc1c(Br)c2c(c(OC)c1OC)-c1ccc(OC)c(=O)cc1[C@@H](NC(C)=O)CC2
quantity.unit: %
Activity: 7.37
--
compound.structure: COc1cccc2c1C(=O)c1c(O)c3c(c(O)c1C2=O)C[C@@](O)(C(=O)CO)C[C@@H]3O[C@H]1C[C@H](N)[C@H](O)[C@H](C)O1
quantity.unit: %
Activity: 5.28
--
compound.structure: CCC(=O)N[C@H]1CCc2c(Br)c(OC)c(OC)c(OC)c2-c2ccc(SC)c(=O)cc21
quantity.unit: %
Activity: 6.15
--
compound.structure: COc1c(Br)c2c(c(OC)c1OC)-c1ccc(SC)c(=O)cc1[C@@H](NC(C)=O)CC2
quantity.unit: %
Activity: 7.93
--
compound.structure: COc1c(Br)c2c(c(OC)c1OC)-c1ccc(SC)c(=O)cc1[C@@H](NC(=O)c1ccccc1)CC2
quantity.unit: %
Activity: 6.17
--
compound.structure: COc1cc2c(c(OC)c1OC)-c1ccc(OC)c(=O)cc1[C@@H](NC(C)=O)CC2
quantity.unit: %
Activity: 5.51
--
compound.structure: COc1c(Br)c2c(c(OC)c1OC)-c1ccc(SC)c(=O)cc1[C@@H](NC(=O)C(C)C)CC2
quantity.unit: %
Activity: 4.89
--
compound.structure: COCC(=O)N[C@H]1CCc2c(Br)c(OC)c(OC)c(OC)c2-c2ccc(SC)c(=O)cc21
quantity.unit: %
Activity: 6.3

----------
system: MCF7; test: Cell cycle arrest in human MCF7 cells assessed as accumulation in G2 phase at 5 times of antiproliferative IC50 incubated for 48 hrs by propidium iodide based flow cytometry (reference value: 16 %); assay type: functional

molecule: CCC(=O)N[C@H]1CCc2c(Br)c(OC)c(OC)c(OC)c2-c2ccc(SC)c(=O)cc21
quantity.unit: %
Activity: 63.7

molecule: COCC(=O)N[C@H]1CCc2c(Br)c(OC)c(OC)c(OC)c2-c2ccc(SC)c(=O)cc21
quantity.unit: %
Activity: 54.3

molecule: COc1cccc2c1C(=O)c1c(O)c3c(c(O)c1C2=O)C[C@@](O)(C(=O)CO)C[C@@H]3O[C@H]1C[C@H](N)[C@H](O)[C@H](C)O1 [DOXORUBICIN]
quantity.unit: %
Activity: 32.4

----------
Measured selectivity ratio by item
assay: Selectivity index, ratio of IC50 of mouse BALB/3T3 cells to IC50 of human LoVo cells; assay type: toxicity; conditions: BALB/3T3 cells versus LoVo cells, read-out: Ratio IC50

compound.structure: COc1c(Br)c2c(c(OC)c1OC)-c1ccc(OC)c(=O)cc1[C@@H](NC(C)=O)CC2
selectivity ratio: 1.7

compound.structure: COc1c(Br)c2c(c(OC)c1OC)-c1ccc(SC)c(=O)cc1[C@@H](NC(=O)c1ccccc1)CC2
selectivity ratio: 2.6

compound.structure: COc1c(Br)c2c(c(OC)c1OC)-c1ccc(SC)c(=O)cc1[C@@H](NC(C)=O)CC2
selectivity ratio: 7.6

compound.structure: COCC(=O)N[C@H]1CCc2c(Br)c(OC)c(OC)c(OC)c2-c2ccc(SC)c(=O)cc21
selectivity ratio: 1.5

compound.structure: CCC(=O)N[C@H]1CCc2c(Br)c(OC)c(OC)c(OC)c2-c2ccc(SC)c(=O)cc21
selectivity ratio: 1.6

----------
assay: Selectivity index, ratio of IC50 of mouse BALB/3T3 cells to IC50 of human ALL5 cells
measured.quantity: Ratio IC50

compound.structure: COc1c(Br)c2c(c(OC)c1OC)-c1ccc(SC)c(=O)cc1[C@@H](NC(=O)CCCCl)CC2
measured.quantity: Ratio IC50
readout.number: 4.6
--
compound.structure: CCCCCCCCCC(=O)N[C@H]1CCc2c(Br)c(OC)c(OC)c(OC)c2-c2ccc(SC)c(=O)cc21
measured.quantity: Ratio IC50
readout.number: 0.5
--
compound.structure: COc1c(Br)c2c(c(OC)c1OC)-c1ccc(SC)c(=O)cc1[C@@H](N)CC2
measured.quantity: Ratio IC50
readout.number: 13.8
--
compound.structure: COc1c(Br)c2c(c(OC)c1OC)-c1ccc(SC)c(=O)cc1[C@@H](NC(=O)C(C)C)CC2
measured.quantity: Ratio IC50
readout.number: 2.4
--
compound.structure: COCC(=O)N[C@H]1CCc2c(Br)c(OC)c(OC)c(OC)c2-c2ccc(SC)c(=O)cc21
measured.quantity: Ratio IC50
readout.number: 2.2
--
compound.structure: COc1c(Br)c2c(c(OC)c1OC)-c1ccc(OC)c(=O)cc1[C@@H](NC(C)=O)CC2
measured.quantity: Ratio IC50
readout.number: 24.1
--
compound.structure: COc1c(Br)c2c(c(OC)c1OC)-c1ccc(SC)c(=O)cc1[C@@H](NC(C)=O)CC2
measured.quantity: Ratio IC50
readout.number: 19.1
--
compound.structure: CCC(=O)N[C@H]1CCc2c(Br)c(OC)c(OC)c(OC)c2-c2ccc(SC)c(=O)cc21
measured.quantity: Ratio IC50
readout.number: 1.3
--
compound.structure: CCN(CC)C(=O)N[C@H]1CCc2c(Br)c(OC)c(OC)c(OC)c2-c2ccc(SC)c(=O)cc21
measured.quantity: Ratio IC50
readout.number: 1.5
--
compound.structure: COc1c(Br)c2c(c(OC)c1OC)-c1ccc(SC)c(=O)cc1[C@@H](NC(=O)c1ccccc1)CC2
measured.quantity: Ratio IC50
readout.number: 3
